target: human MRGPR X4 (Homo sapiens); construct: expressed in transfected cells; experiment: MRGPR X4 antagonist activity, IP-One Gq HTRF assay in stably transfected HEK cells; type: cell-based; conditions: versus 20 μM deoxycholic acid agonist; HEK cells expressing human MRGPR X4; read-out: MRGPRX4 Antagonist Activity
readoutName: IC50

Here is how some compounds turned out for IC50.
{"columns": ["givenSmiles", "value"],
 "data": [
  ["O=C(CS(=O)(=O)c1cn(Cc2ccc(Cl)cc2)c2ccccc12)Nc1ccccc1F", "0.1 to 0.5 µM"],
  ["CS(=O)(=O)c1cccc(Cn2nc(C(=O)NCCc3nnc4ccccn34)c3ccccc32)c1", "> 2.5 µM"],
  ["O=C(NS(=O)(=O)c1cccc(OC(F)(F)F)c1)c1nn(Cc2ccc(OC(F)F)cc2)c2ccccc12", "1 to 2.5 µM"],
  ["CS(=O)(=O)c1ccccc1Cn1nc(C(=O)NCCc2nnc3ccccn23)c2ccccc21", "> 2.5 µM"]
]}

Now take the following compound into account.
Problem: Item "O=C(NS(=O)(=O)c1ccc(OC(F)(F)F)cc1)c1nn(Cc2ccc(OC(F)F)cc2)c2ccccc12" has what recorded IC50?
Result: > 2.5 µM

----------
target: human MRGPR X4 (Homo sapiens, UniProt Q96LA9); construct: expressed in transfected cells; test: MRGPR X4 antagonist activity, IP-One Gq HTRF assay in stably transfected HEK cells; type: cell-based
Sequence (Q96LA9 whole entry): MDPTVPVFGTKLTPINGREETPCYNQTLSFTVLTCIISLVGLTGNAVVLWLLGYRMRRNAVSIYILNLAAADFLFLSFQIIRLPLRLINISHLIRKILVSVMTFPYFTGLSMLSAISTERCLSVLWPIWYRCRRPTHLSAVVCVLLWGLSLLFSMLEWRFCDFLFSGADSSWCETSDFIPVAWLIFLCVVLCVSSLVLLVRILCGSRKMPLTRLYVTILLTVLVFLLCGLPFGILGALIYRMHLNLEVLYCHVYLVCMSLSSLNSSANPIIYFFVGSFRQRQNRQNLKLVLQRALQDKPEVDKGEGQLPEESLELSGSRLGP
pIC50: −log10 of the molar value.
readoutName: pIC50

Here is how some molecules turned out for pIC50.
{"columns": ["givenSmiles", "value"],
 "data": [
  ["O=C(Nc1cncnc1)c1nn(Cc2ccc(Cl)cc2)c2ccccc12", "5.60 to 6.00"],
  ["O=C(NCCc1nnc2ccccn12)c1nn(CCC2CCCC2)c2ccccc12", "6.00 to 6.30"],
  ["Cc1ccc(Cn2nc(C(=O)NCCc3nc4ccccc4o3)c3ccccc32)cc1", "5.60 to 6.00"],
  ["O=C(CNC(=O)c1nn(Cc2ccc(Cl)cc2)c2ccccc12)NCC(F)F", "< 5.60"],
  ["Cc1nc(Cn2nc(C(=O)NCCc3nnc4ccccn34)c3ccccc32)nc2ccccc12", "5.60 to 6.00"]
]}

Problem: Item "Cc1ccc(Cn2nc(C(=O)NCCc3ccnn3C)c3ccccc32)cc1" has what recorded pIC50?
Result: < 5.60

Problem: Item "O=C(NCCc1nnc2ccccn12)c1nn(Cc2cnn(-c3ccccc3)c2)c2ccccc12" has what recorded pIC50?
Result: 6.30 to 7.00

Problem: Item "N#Cc1ccccc1Cn1nc(C(=O)NCCc2nnc3ccccn23)c2ccccc21" has what recorded pIC50?
Result: 5.60 to 6.00

----------
// pIC50 lookup, one value per entry
target: human MRGPR X4 (Homo sapiens); construct: expressed in transfected cells; assay: MRGPR X4 antagonist activity, IP-One Gq HTRF assay in stably transfected HEK cells; format: cell-based; conditions: versus 20 μM deoxycholic acid agonist; HEK cells expressing human MRGPR X4; read-out: MRGPRX4 Antagonist Activity
pIC50: −log10 of the molar value.

Here is how some molecules turned out for pIC50.
{"columns": ["givenSmiles", "readoutName", "value"],
 "data": [
  ["O=C(NCCc1nnc2ccccn12)c1nn(CCCOc2ccc(Cl)cc2)c2ccccc12", "pIC50", "< 5.60"],
  ["O=C(NS(=O)(=O)c1cccnc1)c1nn(Cc2ccc(Cl)cc2)c2ccccc12", "pIC50", "< 5.60"],
  ["Cc1nccn1-c1ccc(Cn2nc(C(=O)NCCc3nnc4ccccn34)c3ccccc32)cc1", "pIC50", "< 5.60"]
]}

Problem: Item "COC(=O)c1ccc(S(=O)(=O)NC(=O)c2nn(Cc3ccc(OC(F)F)cc3)c3ccccc23)cc1" has what recorded pIC50?
Result: 5.60 to 6.00

Problem: Item "Cc1cc(S(=O)(=O)NC(=O)c2nn(Cc3ccc(C(F)(F)F)cc3Cl)c3ccccc23)ccc1C#N" has what recorded pIC50?
Result: 6.00 to 6.30

Problem: Item "Cc1nc(S(=O)(=O)NC(=O)c2nn(Cc3ccc(Cl)cc3)c3ccccc23)sc1C" has what recorded pIC50?
Result: 5.60 to 6.00

Problem: Item "Cc1ccc(Cn2nc(C(=O)NS(=O)(=O)c3cccc(C)c3)c3ccccc32)cc1" has what recorded pIC50?
Result: < 5.60
